# inhibition annotations
# Protocol description: LFS_MB_1R medulloblastoma cell growth inhibition, synergistic combos for chromothripsis tumors, cisplatin or BGB combos (AID 1671452);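 further: cells exposed for 96 hours before readout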
# Run parameters: LFS_MB_1R medulloblastoma cells, measured here: combination with cisplatin, at 0.5 µM, stronger effect = higher value
Assay endpoint: inhibition (%)

CCn1nc(C(=O)O)c(=O)c2cc3c(cc21)OCO3: -40.5
N=C(N=C(N)N)N1CCOCC1: 8.46
N=c1ccn2c(n1)O[C@H]1[C@H](O)[C@@H](CO)O[C@H]12: 43.5
CN1CCN(c2c(F)cc3c(=O)c(C(=O)O)cn4c3c2OCN4C)CC1: -7.67
Cc1ccc2nc(N)[nH]c(=O)c2c1Sc1ccncc1: -35.9
COC1C(OC(N)=O)C(O)C(Oc2ccc3c(O)c(NC(=O)c4ccc(O)c(CC=C(C)C)c4)c(=O)oc3c2C)OC1(C)C (stereo unspecified): 17.7

----------
# Protocol description: liver-stage malaria parasite growth inhibition, primary screen, cell-based, HepG2, luciferase luminescence, HepG2 viability (AID 624349);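 further: 100% = mean of DMSO negative control wells on the same plate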
# Run parameters: P. berghei liver stage in HepG2, luciferase luminescence, concentration not given here; stronger effect = lower value
Assay endpoint: parasite load remaining (%)

CS(=O)(=O)CCNCc1ccc(-c2ccc3ncnc(Nc4ccc(OCc5cccc(F)c5)c(Cl)c4)c3c2)o1: 44.4
C=C1C[C@]23C[C@@]1(O)CC[C@H]2[C@@]12C=C[C@H](O)[C@@](C)(C(=O)O1)[C@H]2[C@@H]3C(=O)O: 101
CC(C)C(=O)c1c(C(C)C)nn2ccccc12: 83.4
CC[C@]1(O)C[C@H]2CN(CCc3c([nH]c4ccccc34)[C@@](C(=O)OC)(c3cc4c(cc3OC)N(C=O)[C@H]3[C@@](O)(C(=O)OC)[C@H](OC(C)=O)[C@]5(CC)C=CCN6CC[C@]43[C@@H]65)C2)C1: 14.9
CCCCc1ncc(/C=C(\Cc2cccs2)C(=O)O)n1Cc1ccc(C(=O)O)cc1: 50.8
CCOC(=O)/C=C(C)/C=C/C=C(C)/C=C/c1c(C)cc(OC)c(C)c1C: 13.4
NC(=O)c1cc[n+](CC2=C(C(=O)[O-])N3C(=O)[C@@H](NC(=O)Cc4cccs4)[C@H]3SC2)cc1: 91.4
C[C@]12CC[C@H]3[C@@H](CCC4=CC(=O)CC[C@@]43C)[C@@H]1CC[C@@H]2C(=O)CO: 95.4
CN(C)CC/C=C1/c2ccccc2Sc2ccc(Cl)cc21: 63.4

----------
# Protocol description: stimulators of insulin release from INS-1E, primary screen, cell-based, 5 mM glucose, NPC library (AID 1117329); further: reference of the scale not given here
# Run parameters: rat INS-1E insulin secretion, at 10 µM
The source made the active and inactive calls.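 How the source made its calls: active means compound raises insulin release from rat beta cells at 5 mM glucose, no numeric limit stated; inactive means the rest.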
Outcomes: yes (1) for active, no (0) for inactive

C[C@@H]1C[C@H]2[C@@H]3CCC4=CC(=O)C=C[C@]4(C)[C@@]3(Cl)[C@@H](O)C[C@]2(C)[C@@]1(OC(=O)c1ccco1)C(=O)CCl: no (0)
CC1(C)[C@@H](OC(=O)CCC(=O)O)CC[C@]2(C)[C@H]3C(=O)C=C4[C@@H]5C[C@@](C)(C(=O)O)CC[C@]5(C)CC[C@@]4(C)[C@]3(C)CC[C@@H]12: no (0)
COc1cc(O)c(C(=O)c2ccccc2)cc1S(=O)(=O)O: no (0)
CCC(C(=O)OCCOCCN(CC)CC)c1ccccc1 (stereo not drawn): no (0)
Cc1[nH]c(=O)c(C#N)cc1-c1ccc2nccn2c1: no (0)
CN1CC[C@H](c2c(O)cc(O)c3c(=O)cc(-c4ccccc4Cl)oc23)[C@H](O)C1: no (0)
CN1CC(=O)N/C1=N/C(=O)Nc1cccc(Cl)c1: no (0)
O=C(O)c1ccc[n+]([O-])c1: no (0)
O=C(CCCl)NCCc1ccccc1: no (0)
N=C(N)N1CCc2ccccc2C1: no (0)
CCN(CC)CCNC(=O)c1c(C)[nH]c(/C=C2\C(=O)Nc3ccc(F)cc32)c1C: yes (1)
CCCCCCCCOc1ccccc1C(=O)Nc1ccc(C(=O)OCC[N+](C)(CC)CC)cc1: no (0)
C[C@@]12C(=O)OC(=O)[C@]1(C)C1CCC2O1: no (0)
O=c1[nH]c(=O)n([C@H]2C[C@H](O)[C@@H](CO)O2)cc1I: no (0)
CCC(=O)c1ccc2c(c1)N(CCCN(C)C)c1ccccc1S2: yes (1)
CCCCCCCCCCCCCCC[C@H](O)[C@@H](N)CO: no (0)
OCCN1CCN(CCCN2c3ccccc3C=Cc3ccccc32)CC1: no (0)
CC=CC1=C(C(=O)O)N2C(=O)[C@@H](NC(=O)[C@H](N)c3ccc(O)cc3)[C@H]2SC1: no (0)
C[N+](C)(C)CCOC(=O)CCC(=O)OCC[N+](C)(C)C: no (0)
CCOc1ccccc1C(N)=O: no (0)
O=C(Nc1cccc2c(=O)cc(-c3nn[nH]n3)oc12)c1ccc(OCCCCc2ccccc2)cc1: no (0)
O=C(NCCCN1CCOCC1)c1ccc(Cl)cc1: no (0)
O=S(=O)(O)NC1CCCCC1: no (0)
CC(C(=O)O)c1ccc2c(c1)Cc1cccnc1O2 (stereo not drawn): no (0)
COc1cc(/C=C/C(N)=O)cc(OC)c1OC: no (0)
CC1(C)CCC(C)(C)c2cc(NC(=O)c3ccc(C(=O)O)cc3)ccc21: no (0)
NCCc1ccn[nH]1: no (0)
OCc1ccccn1: no (0)
Cc1ccc(-c2ncc(Cl)cc2-c2ccc(S(C)(=O)=O)cc2)cn1: no (0)
OC1(c2ccc(Cl)c(C(F)(F)F)c2)CCN(CCCC(c2ccc(F)cc2)c2ccc(F)cc2)CC1: no (0)
O=C(O)c1cn(C2CC2)c2cc(N3CCNCC3)c(F)cc2c1=O: no (0)
Cc1ccccc1C(=O)Nc1ccc(C(=O)N2CCCC(O)c3cc(Cl)ccc32)c(C)c1 (stereo not drawn): no (0)
CCOC(=O)/C=C(C)/C=C/C=C(C)/C=C/c1c(C)cc(OC)c(C)c1C: no (0)
COc1ccc(-c2ccc3cc(C(=O)O)ccc3c2)cc1C12CC3CC(CC(C3)C1)C2: no (0)
CCCCCCCCCCCCCCCCCC[N+](C)(C)CCC[Si](OC)(OC)OC: no (0)
O=C1NCCN1CCN1CCC(c2cn(-c3ccc(F)cc3)c3ccc(Cl)cc23)CC1: no (0)
CC(=O)OCC(=O)[C@@]12N=C(C)O[C@@H]1C[C@H]1[C@@H]3CCC4=CC(=O)C=C[C@]4(C)[C@H]3[C@@H](O)C[C@@]12C: no (0)
CCCCC(CC)COC(=O)C(C#N)=C(c1ccccc1)c1ccccc1 (stereo not drawn): no (0)
CCOCCn1c(N2CCCN(C)CC2)nc2ccccc21: no (0)
COC(=O)N[C@H](C(=O)N[C@@H](Cc1ccccc1)[C@@H](O)CN(Cc1ccc(-c2ccccn2)cc1)NC(=O)[C@@H](NC(=O)OC)C(C)(C)C)C(C)(C)C: no (0)
COc1ccc2c(c1OC)C(=O)O[C@@H]2[C@H]1c2c(cc3c(c2OC)OCO3)CCN1C: no (0)
O=C(O)CCc1nc2ccccc2[nH]1: no (0)
O=C(Nc1ccc(S(=O)(=O)N2CCOCC2)cc1)c1cc(Cl)ccc1NS(=O)(=O)c1ccc(Cl)s1: no (0)
